Cited source: patent US20100069450A1

test: Absorption kinetic: plasma concentration of BTG 1640 after oral gavage; format: in vivo, rats Sprague Dawley; details: Sprague Dawley, rat, in vivo, po, 10 mg/kg
Counter-ions that a name gives are not always drawn.
QUANTITY NAME: concentration at 5 min (ng/mL)
Just the number in ng/mL, nothing appended.

Quick one: concentration at 5 min of CN1OC2CCCC(=O)C2C1Cc1ccccc1 (stereo not shown) [BTG 1640 fumarate] ?
2350

----------
Below, each of the compounds is paired with its reported Purity % value.
assay: Stability test of BTG 1640 salts: purity under preservation conditions; assay type: physicochemical; details: T = 25° C., humidity 60% RH; time 6 (months)
Structures can show the parent of a compound that is named as a salt.
Just the number in %, nothing appended.

Recorded results for 4 compounds are shown here.
{"COMPOUND": "CN1OC2CCCC(=O)C2C1Cc1ccccc1.O=C(O)CCC(=O)O (centres unmarked) [BTG 1640 succinate]", "Purity % [%]": 87.0}
{"COMPOUND": "CN1OC2CCCC(=O)C2C1Cc1ccccc1 (centres unmarked) [BTG 1640 fumarate]", "Purity % [%]": 100.0}
{"COMPOUND": "CN1OC2CCCC(=O)C2C1Cc1ccccc1.Cl (centres unmarked) [BTG 1640 hydrochloride]", "Purity % [%]": 101.5}
{"COMPOUND": "CN1OC2CCCC(=O)C2C1Cc1ccccc1.O=C(O)/C=C\\C(=O)O (centres unmarked) [BTG 1640 maleate]", "Purity % [%]": 100.0}

Quick one: Purity % of CN1OC2CCCC(=O)C2C1Cc1ccccc1.CS(=O)(=O)O (centres unmarked) [BTG 1640 methanesulphonate] ?
97.1

----------
assay: Stability test of BTG 1640 salts: evaluation of total impurities; assay type: physicochemical; conditions: T = 30° C., humidity 65% RH; time 3 (months)
Structures can show the parent of a compound that is named as a salt.
QUANTITY NAME: % impurities
Lab note: write values as number then unit, every time.

Quick one: % impurities of CN1OC2CCCC(=O)C2C1Cc1ccccc1.O=C(O)CCC(=O)O (centres unmarked) [BTG 1640 succinate] ?
14.60%

Quick one: % impurities of CN1OC2CCCC(=O)C2C1Cc1ccccc1.O=C(O)/C=C\C(=O)O (centres unmarked) [BTG 1640 maleate] ?
0.49%

Quick one: % impurities of CN1OC2CCCC(=O)C2C1Cc1ccccc1 (centres unmarked) [BTG 1640 fumarate] ?
0.10%

Quick one: % impurities of CN1OC2CCCC(=O)C2C1Cc1ccccc1.Cl (centres unmarked) [BTG 1640 hydrochloride] ?
0.44%

Quick one: % impurities of CN1OC2CCCC(=O)C2C1Cc1ccccc1.CS(=O)(=O)O (centres unmarked) [BTG 1640 methanesulphonate] ?
4.00%

----------
Below, each of the molecules is paired with its reported Purity % value.
experiment: Stability test of BTG 1640 salts: purity under preservation conditions; format: physicochemical; settings: T = 40° C., humidity 75% RH; time 0
Where a name gives a salt, the structure may show the parent alone.
Just the number in %, nothing appended.

Recorded results for 4 molecules are shown here.
{"MOLECULE": "CN1OC2CCCC(=O)C2C1Cc1ccccc1 (centres unmarked) [BTG 1640 fumarate]", "Purity %, %": 99.5}
{"MOLECULE": "CN1OC2CCCC(=O)C2C1Cc1ccccc1.Cl (centres unmarked) [BTG 1640 hydrochloride]", "Purity %, %": 99.7}
{"MOLECULE": "CN1OC2CCCC(=O)C2C1Cc1ccccc1.CS(=O)(=O)O (centres unmarked) [BTG 1640 methanesulphonate]", "Purity %, %": 99.6}
{"MOLECULE": "CN1OC2CCCC(=O)C2C1Cc1ccccc1.O=C(O)CCC(=O)O (centres unmarked) [BTG 1640 succinate]", "Purity %, %": 99.2}

Now, please, on to the next molecule.
Quick one: Purity % of CN1OC2CCCC(=O)C2C1Cc1ccccc1.O=C(O)/C=C\C(=O)O (centres unmarked) [BTG 1640 maleate] ?
99.8
